composite z-score reference
molecular target: Pro-neuregulin-1, membrane-bound isoform (Homo sapiens); experiment: NRG1 binders on small-molecule microarrays, primary screen, psychiatric disease protein project, biochemical, small-molecule microarray, fluorescence 635/667 (AID 1075); settings: NRG1 binding, 635 nm fluorescence, higher = more signal;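 also: score combines 667 nm spot fluorescence with signal to noise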
// keep it numeric: no unit symbol after the value

Some compounds with known composite z-score results, for comparison:
C=CCN1C(=O)[C@@]2(O[C@@H](CCO)[C@H]([Si](C)(C)c3ccc(OC)cc3)[C@H]2C)c2cc(N3CCOC3=O)ccc21	1.21
[N-]=[N+]=NC[C@H](Cc1ccccc1)NC(=O)c1ccccc1	-0.0451

### Prompt Request the reported composite z-score associated with O=C1OCCC/C=C\[C@H]2OC34C=CCN(c5ccc6ccccc6c5)C(=O)[C@H]3N(CCCO)C(=O)[C@@H]4C12 (some centres undefined)
### Response 0.437

### Prompt Quick check: composite z-score of CN1C(=O)[C@@H]2[C@@H](CC(COc3ccccc3)=C([C@H](O)CCc3ccccc3)[C@@H]2CO)C1=O ?
### Response -0.207

### Prompt Reported composite z-score, compound C=C(/C(=C/C[C@H](OC(=O)c1ccncc1)c1ccccc1OCCO)c1cnc2ccccc2c1)C(C)C : ____
### Response 1.01

### Prompt Fill in: composite z-score of COC(=O)c1c2oc(c1C(=O)OC)C(=O)N1CCC[C@H]1Cn1nncc1CN(Cc1ccccc1)C(=O)N[C@H](CO)CC2 is ___
### Response 0.655

### Prompt Fill in the blank: the reported composite z-score of C=C(C(=O)CC[C@H](OC(=O)c1ccccc1-c1ccccc1C(=O)O)c1ccccc1OCCO)C(C)C is ____.
### Response 0.61

### Prompt Report composite z-score for COc1ccc([Si](C)(C)[C@@H]2[C@@H](CCn3cc([C@H](O)c4ccccc4)nn3)O[C@]3(C(=O)N(Cc4cccc(N5C(=O)c6cccc7cccc5c67)c4)c4ccccc43)[C@H]2C)cc1 please.
### Response 0.173

### Prompt GET /values?readout=composite z-score&item= C=CCN1C(=O)[C@]2(O[C@H](CCO)[C@@H]([Si](C)(C)c3ccc(OC)cc3)[C@@H]2C)c2cc(N3C(=O)COc4ccccc43)ccc21
### Response 0.966

### Prompt # lookup: composite z-score of O=C1O[C@H](c2ccccc2)[C@H](c2ccccc2)N2[C@H]1[C@@H](C(=O)N1CCCCCCC1)[C@]1(C(=O)Nc3ccc(C#CC4(O)CCCCCC4)cc31)[C@H]2c1ccccc1OCCO
### Response 2.5

### Prompt What measured composite z-score goes with C=CCC(OC(C)=O)[C@@H]1[C@@H](N(Cc2ccc(-c3cccc(C(F)(F)F)c3)o2)C(=O)Cc2ccc(OC)cc2)c2cc(OCCCO)ccc2N1C(=O)Cc1ccc2ccccc2c1 (some centres undefined) ?
### Response 0.465

### Prompt Which composite z-score is reported for this compound? [N-]=[N+]=Nc1ccccc1C[C@]1(C(=O)O)N=C(c2ccc(OCCCO)cc2)O[C@H]1c1ccccc1N=[N+]=[N-]
### Response 1

### Prompt Requested read-out: composite z-score. Entry: COc1ccc(C(O)C2C=CC3C(=O)N(c4ccccc4)C(=O)C3N2Nc2ccccc2)cc1 (centres undefined)
### Response 1.93

### Prompt Which composite z-score value belongs to COC(=O)C(CC#Cc1ccc2c(c1)[C@]1(C(=O)N2)[C@H](c2ccc(O)cc2)N2[C@H](c3ccccc3)[C@H](c3ccccc3)OC(=O)[C@H]2[C@@H]1C(=O)N1CCCCCCC1)C(=O)OC ?
### Response 1.19

### Prompt Consider the compound O=C1OCC=C[C@H]2OC34C=CCN(c5ccc6ccccc6c5)C(=O)[C@H]3N(CCCCCO)C(=O)[C@@H]4[C@@H]12 (some centres undefined) and give its measured composite z-score.
### Response 2.26

### Prompt Request the reported composite z-score associated with CN(C)C(=O)[C@]1(CCS(=O)(=O)c2ccccc2)N=C(c2ccc(OCCCO)cc2)O[C@@H]1c1ccccc1
### Response 1.76

### Prompt // composite z-score lookup, key: C=C(C)[C@@H]1CC=C(C(O)C2C=CC3C(=O)N(c4ccccc4)C(=O)C3N2Nc2ccc(C#N)cc2)CC1 (some centres undefined)
### Response 1.81
